System: DOCA-salt Hypertensive Rat
assay protocol: antihypertensive activity, DOCA-salt Hypertensive Rat (Table II)
Assay type: in vivo
study conditions: DOCA; 30 mg/kg oral
Structures can show the parent of a compound that is named as a salt.
measurement type: ΔHR 4 hours (beats per minute)

[
  {
    "compound": "Cc1ccccc1N1CCN(CCCN2Cc3cc(Cl)c(S(N)(=O)=O)cc3C2=O)CC1",
    "measurement type": "ΔHR 4 hours",
    "unit annotation": "beats per minute",
    "recorded measurement": 18
  },
  {
    "compound": "NS(=O)(=O)c1cc2c(cc1Cl)CN(CCCN1CCN(c3cccc(Cl)c3)CC1)C2=O [Example II, hydrochloride hemihydrate]",
    "measurement type": "ΔHR 4 hours",
    "unit annotation": "beats per minute",
    "recorded measurement": 22
  },
  {
    "compound": "COc1ccccc1N1CCN(CCN2Cc3cc(Cl)c(S(N)(=O)=O)cc3C2=O)CC1",
    "measurement type": "ΔHR 4 hours",
    "unit annotation": "beats per minute",
    "recorded measurement": 63
  },
  {
    "compound": "COc1ccccc1N1CCN(CCCN2Cc3cc(Cl)c(S(N)(=O)=O)cc3C2=O)CC1",
    "measurement type": "ΔHR 4 hours",
    "unit annotation": "beats per minute",
    "recorded measurement": 59
  }
]

----------
assay protocol: conscious rat diuretic screen of Lipschitz (Table I)
Type: in vivo, rat (female Sprague Dawley; male Okamoto-Aoki)
study conditions: 30 mg/kg oral; female Sprague Dawley rats
Where a name gives a salt, the structure may show the parent alone.

[
  {
    "compound": "COc1ccccc1N1CCN(CCN2Cc3cc(Cl)c(S(N)(=O)=O)cc3C2=O)CC1",
    "Urinary Na/K (Test Compound)": 3.44
  },
  {
    "compound": "NS(=O)(=O)c1cc2c(cc1Cl)CN(CCCN1CCN(C(=O)c3ccc(F)cc3)CC1)C2=O",
    "Urinary Na/K (Test Compound)": 3.69
  },
  {
    "compound": "NS(=O)(=O)c1cc2c(cc1Cl)CN(CCCN1CCN(c3cccc(Cl)c3)CC1)C2=O [Example II, hydrochloride hemihydrate]",
    "Urinary Na/K (Test Compound)": 3.41
  },
  {
    "compound": "NS(=O)(=O)c1cc2c(cc1Cl)CN(CCCN1CCN(Cc3ccccc3)CC1)C2=O",
    "Urinary Na/K (Test Compound)": 4.14
  },
  {
    "compound": "NS(=O)(=O)c1cc2c(cc1Cl)CN(CCCN1CCN(c3cccc(C(F)(F)F)c3)CC1)C2=O [Example IX, hydrochloride hemihydrate]",
    "Urinary Na/K (Test Compound)": 3.67
  },
  {
    "compound": "Cl.NS(=O)(=O)c1cc2c(cc1Cl)CN(CCCN1CCN(C(=O)c3ccccc3)CC1)C2=O.O",
    "Urinary Na/K (Test Compound)": 3.27
  },
  {
    "compound": "COc1ccccc1N1CCN(CCCN2Cc3cc(Cl)c(S(N)(=O)=O)cc3C2=O)CC1",
    "Urinary Na/K (Test Compound)": 2.98
  },
  {
    "compound": "COc1ccccc1N1CCN(CCCCN2Cc3cc(Cl)c(S(N)(=O)=O)cc3C2=O)CC1",
    "Urinary Na/K (Test Compound)": 2.62
  },
  {
    "compound": "Cl.NS(=O)(=O)c1cc2c(cc1Cl)CN(CCCN1CCN(c3ccccc3)CC1)C2=O.O",
    "Urinary Na/K (Test Compound)": 2.83
  },
  {
    "compound": "Cl.N#Cc1cccnc1N1CCN(CCCN2Cc3cc(Cl)c(S(N)(=O)=O)cc3C2=O)CC1",
    "Urinary Na/K (Test Compound)": 3.90
  }
]
